Cited source for all entries: PubChem BioAssay

- PROCEDURE_SUMMARY: inhibitors of the yeast RAM network, pilot screen, dse1pr::URA3 reporter, 5-FOA selection (AID 869);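 also: 0% = DMSO wells with no growth and 100% = 10 µM 1-NA-PP1 with full growth; RAM network block rescues cells from 5-FOA so hits raise OD615 growth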
- SETUP_CONDITIONS: S. cerevisiae dse1pr::URA3 5-FOA growth, OD615, 2 d; at 10 µM; stronger effect = higher value; strain carries analog-sensitive mutant Cbk1 kinase
ENDPOINT_LABEL: inhibition (%)
I only need the number, in %, no unit after it.

## Task Identify measured inhibition associated with CC(C)(Oc1ccc(Cl)cc1)C(=O)OCC(=O)N1CCCC1
## Result 0.455

## Task Identify measured inhibition associated with O=C1c2ccccc2C(Nc2ccc3c(c2)OCO3)N1Cc1ccco1 (stereo unspecified)
## Result 1.98

## Task Identify measured inhibition associated with COCCn1c(=O)[nH]c2cc(C(=O)NCC3CCCO3)ccc2c1=O (stereo unspecified)
## Result 1.23

## Task Identify measured inhibition associated with O=C(CCn1c(=O)sc2ccccc21)NCCN1CCOCC1
## Result 1.49

## Task Identify measured inhibition associated with Clc1ccc(-n2ncc3c(N4CCCCCC4)ncnc32)cc1
## Result -0.14

## Task Identify measured inhibition associated with CCOc1ccccc1N(CC(=O)Nc1ccc2c(c1)OCO2)S(C)(=O)=O
## Result 1.7

## Task Identify measured inhibition associated with O=C(O)CCC(=O)N1CCc2cc(S(=O)(=O)N3CC=C(c4ccccc4)CC3)ccc21
## Result 3.79

## Task Identify measured inhibition associated with CCOc1ccc(Nc2cc(C)nc3nc(C)nn23)cc1
## Result 0.67

## Task Identify measured inhibition associated with CCc1ccc(C2CC(c3ccccc3C)n3nc(N)nc3N2)cc1 (stereo unspecified)
## Result 0.19

## Task Identify measured inhibition associated with Cc1cc(C(=O)NC(C)c2ccncc2)no1 (stereo unspecified)
## Result 1.55

## Task Identify measured inhibition associated with O=C1N=C(c2ccccc2)C(c2ccccc2)N1 (stereo unspecified)
## Result 1.23

## Task Identify measured inhibition associated with c1ccc(N2CCN(c3nnnn3-c3ccccc3)CC2)cc1
## Result 1.12

## Task Identify measured inhibition associated with Cc1cc(/C=N/n2cnnc2)c(C)n1-c1ccc(OCc2ccccc2F)cc1
## Result 1.2

## Task Identify measured inhibition associated with CCCCn1c(CCC(=O)O)ccc1-c1cccs1
## Result 0.85

## Task Identify measured inhibition associated with CCCC(c1c(C)n(C)n(-c2ccccc2)c1=O)c1c(C)n(C)n(-c2ccccc2)c1=O
## Result 1.16

## Task Identify measured inhibition associated with CCOc1ccc(NC(=O)CSc2nnc(-c3ccccc3)n2N)cc1
## Result 0.495

## Task Identify measured inhibition associated with CCN(Cc1ccncc1)C(=O)c1cccc(S(=O)(=O)N2CCOCC2)c1
## Result 1.07

## Task Identify measured inhibition associated with COc1cc2c(cc1NC(=O)c1ccco1)CCCC2
## Result 2.06

## Task Identify measured inhibition associated with O=C(Nc1ccc(N2CCCCC2)cc1)c1cncc(Br)c1
## Result 1.98

## Task Identify measured inhibition associated with COC(=O)c1ccc2[nH]c(C)c(CN3CCCC3)c(=O)c2c1
## Result 0.415

## Task Identify measured inhibition associated with CCSc1oc(-c2ccco2)nc1S(=O)(=O)c1ccc(F)cc1
## Result 0.335

## Task Identify measured inhibition associated with CCOC(=O)C(CCC#N)(CCC#N)C(=O)OCC
## Result 0.445

## Task Identify measured inhibition associated with CCn1c(O)c(C2=NCCCC2)c2ccccc21
## Result -0.49

## Task Identify measured inhibition associated with CC1CC(C)CN(C(=O)C(NS(=O)(=O)c2ccc3c(c2)oc(=O)n3C)C(C)C)C1 (stereo unspecified)
## Result -0.355

## Task Identify measured inhibition associated with COC1CCCCC1NS(=O)(=O)c1ccc(Cl)cc1 (stereo unspecified)
## Result -0.11

## Task Identify measured inhibition associated with CCCC(C)NC(=O)c1ccc(F)cc1 (stereo unspecified)
## Result 0.66

## Task Identify measured inhibition associated with CCN1CCN(c2cc(C)c3cc(NC(=O)c4ccc5c(c4)OCO5)ccc3n2)CC1
## Result -0.365

## Task Identify measured inhibition associated with CN(Cc1ccco1)C(=O)C(Cc1ccccc1)NS(=O)(=O)c1ccc2c(c1)CCC(=O)N2 (stereo unspecified)
## Result 2.2

## Task Identify measured inhibition associated with COc1ccc(S(=O)(=O)Cc2ccc(C(=O)N3CCN(C4CCCCC4)CC3)o2)cc1
## Result 0.75

## Task Identify measured inhibition associated with Cn1c(/C(C#N)=C2/CCCCCN2)nc2ccccc21
## Result 0.395

## Task Identify measured inhibition associated with COC(=O)C1=C(C)N(C)C(=O)NC1c1ccc(C)cc1 (stereo unspecified)
## Result 2.69

## Task Identify measured inhibition associated with COc1ccc(NC(=O)C2CCN(S(=O)(=O)c3cccnc3)CC2)cc1Cl
## Result 1.77

## Task Identify measured inhibition associated with Cc1ccc(C2CC(c3ccc(F)cc3)Nc3nc(N)nn32)cc1 (stereo unspecified)
## Result 0.25

## Task Identify measured inhibition associated with O=C(CSc1nnnn1-c1cccc2c1CCCC2)N1CCOCC1
## Result 0.68

## Task Identify measured inhibition associated with CCN(CC)CCOc1c(Br)ccc2c1sc1nc3n(c(=O)c12)CCC3
## Result 0.405

## Task Identify measured inhibition associated with CC(C)c1ccc(C2CC(=O)N3CN(C)CSC3=C2C#N)cc1 (stereo unspecified)
## Result 1.75

## Task Identify measured inhibition associated with COCc1cc(=O)n2c(-c3ccccc3OC)n[nH]c2n1
## Result 2.2

## Task Identify measured inhibition associated with CC(C)(C)NC(=O)c1ccc(NC(=O)C2COc3ccccc3O2)cc1 (stereo unspecified)
## Result 1.9

## Task Identify measured inhibition associated with CC(C)n1c(SCCCc2ccccc2)nc2c1c(=O)[nH]c(=O)n2C
## Result 1.95

## Task Identify measured inhibition associated with COC(=O)C(C(=O)OC)C(C(=O)OC)C(C(=O)OC)C(=O)OC
## Result 0.42

## Task Identify measured inhibition associated with COC(=O)C1=C(N)OC2=C(C(=O)CC(C)(C)C2)C1c1cccnc1 (stereo unspecified)
## Result 0.305

## Task Identify measured inhibition associated with COc1ccccc1NC(=O)Cn1cnc2c(oc3ccccc32)c1=O
## Result 1.6

## Task Identify measured inhibition associated with COc1ccccc1OCCC(=O)OCC(=O)NC(=O)NC(C)(C)C
## Result 2.56

## Task Identify measured inhibition associated with Cc1ccsc1C(=O)OCC(=O)c1cc2ccccc2o1
## Result 1.28

## Task Identify measured inhibition associated with COc1cc(C2CC(=O)C=C(O)C2)cc(OC)c1OC (stereo unspecified)
## Result 0.785

## Task Identify measured inhibition associated with Cc1ccc2c(c1)N(CCCC(=O)NCc1cccnc1)C(=O)CO2
## Result -0.1

###

- PROCEDURE_SUMMARY: reducers of endogenous Her2 protein level, primary screen, SKBR3 breast tumor cells, AlphaScreen, ATP viability (AID 461);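 also: percent of carrier control wells set as 100% viability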
- SETUP_CONDITIONS: 18-24 h, measured here: SKBR3 viability, ATP luminescence, at 10 µM
ENDPOINT_LABEL: viability (%)
I only need the number, in %, no unit after it.

## Task Identify measured viability associated with COC(=O)c1c(NC(=O)CSc2nnc(-c3cccnc3)n2Cc2ccco2)sc(C)c1C
## Result 87

## Task Identify measured viability associated with Nc1nonc1N1CCCCC1
## Result 85.5

## Task Identify measured viability associated with COc1cc2[nH]c(=O)c(C(=O)NCCCN3CCCCC3)c(O)c2cc1OC
## Result 99.5

## Task Identify measured viability associated with CCCOc1ccc(/C(O)=C2/C(=O)C(=O)N(CCCOC)C2c2ccncc2)cc1 (stereo unspecified)
## Result 98

## Task Identify measured viability associated with O=C(c1ccc2c(c1)[nH]c(=S)n1c3ccccc3nc21)N1CCN(c2ncccn2)CC1
## Result 100

## Task Identify measured viability associated with CCCCCC1CC(CC(=O)O)C(=O)O1 (stereo unspecified)
## Result 100

###

- PROCEDURE_SUMMARY: inhibitors of the yeast RAM network, pilot screen, dse1pr::URA3 reporter, 5-FOA selection (AID 869);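 also: 0% = DMSO wells with no growth and 100% = 10 µM 1-NA-PP1 with full growth; RAM network block rescues cells from 5-FOA so hits raise OD615 growth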
- SETUP_CONDITIONS: S. cerevisiae dse1pr::URA3 5-FOA growth, OD615, 2 d; at 10 µM; stronger effect = higher value; strain carries analog-sensitive mutant Cbk1 kinase
ENDPOINT_LABEL: inhibition (%)
I only need the number, in %, no unit after it.

## Task Identify measured inhibition associated with COc1ccc(C2C(C(=O)NCCN3CCOCC3)c3ccccc3C(=O)N2C)cc1OC (stereo not given)
## Result 1.24

## Task Identify measured inhibition associated with Cc1cc(Nc2ccc(F)cc2)n2nc(C)nc2n1
## Result -0.875

## Task Identify measured inhibition associated with CCOC(=O)c1ccc(N=c2sc(C(=O)OC)cc(=O)n2CCCN2CCOCC2)cc1
## Result 2.12

## Task Identify measured inhibition associated with CC(=O)c1ccc(NC(=O)CN2C(=O)COc3ccc(Cl)cc32)cc1
## Result 2.46

## Task Identify measured inhibition associated with Cc1nc2ccc3nc(NC(=O)C4COc5ccccc5O4)sc3c2s1 (stereo not given)
## Result 1.55

## Task Identify measured inhibition associated with O=C(CS(=O)(=O)c1cn(Cc2cccc(F)c2)c2ccccc12)N1CCCCC1
## Result 2.04

## Task Identify measured inhibition associated with COc1ccc(Cn2nnc3c(=O)[nH]c(C4CCCN(C(=O)c5ccccc5)C4)nc32)cc1 (stereo not given)
## Result -0.35

## Task Identify measured inhibition associated with Cc1cc(NS(=O)(=O)c2ccc(NC(=O)Nc3ccccc3)cc2)no1
## Result 1.92

## Task Identify measured inhibition associated with NC(=O)C1CCN(C(=O)CCCCCn2c(=O)[nH]c3ccsc3c2=O)CC1
## Result 0.97

## Task Identify measured inhibition associated with O=C(CNC(=O)Cn1ccc2ccccc2c1=O)NCCCN1CCN(c2cccc(Cl)c2)CC1
## Result 1.63
